# experimental_target: Retinoic acid receptor RXR-alpha (Homo sapiens)
# assay_procedure: ATG_RXRa_TRANS: Attagene TRANS-FACTORIAL HepG2 Assay for human Retinoid X Receptor alpha (RXRa) (AID 2283012)
Inconclusive results are not listed. Activity calls are given as the source filed them. How the source made its calls: active means hit-call score of the fitted dose curve at least 0.9, where 1 is the maximum; inconclusive means response in the unintended direction; inactive means score below 0.9.
experimental_readout: outcome

CCC(C)(C)C1CCC(=O)CC1    inactive
O=C(OCc1ccccc1)c1ccccc1O    inactive
COc1ccccc1NC(=O)CC(C)=O    inactive
CC(CO)(CO)[N+](=O)[O-]    inactive
Cc1ccc(C(C)(C)O)cc1    inactive
CC(=O)CCC=C(C)CCC=C(C)C    inactive
Nc1cc([N+](=O)[O-])ccc1C(=O)O    inactive
C=CC(=O)OCCCCCC    inactive

----------
# assay_procedure: CEETOX_H295R_OHPROG_noMTC: CeeTox H295R High-throughput Steroidogenesis Assay for OH-Progesterone (OHPROG), maximum tolerated concentration (MTC) filtered results only (AID 2283914)
# run_parameters: actives raise or lower the signal
Calls of active or inactive are those of the source. Rule for the calls: active = hit-call score of the fitted dose curve at least 0.9, where 1 is the maximum; inactive = score below 0.9.
Classes used: Y (active), N (inactive)

COC(=O)c1cccc(C(=O)OC)c1    N
COC(=O)C(C)Oc1ccc(Oc2ncc(C(F)(F)F)cc2Cl)cc1 (centres undefined)    Y
COC(=O)c1ccc(C(=O)OC)cc1    N
CC(=O)OC/C=C(C)/C=C/C=C(C)/C=C/C1=C(C)CCCC1(C)C    N

----------
# Read-out: Monokine induced gamma interferon (MIG), CXCL9 (gene 4283)
# assay_procedure: BSK_hDFCGF_MIG: BioMAP Diversity Plus: hDFCGF Assay for Monokine induced gamma interferon (MIG) Biomarker Activity (AID 2283063)
# run_parameters: primary human foreskin fibroblasts; actives raise or lower the signal
Active and inactive are the calls of the source. How the source made its calls: active means hit-call score of the fitted dose curve at least 0.9, where 1 is the maximum; inactive means score below 0.9.
experimental_readout: outcome

CC(=O)OCC=C(C)CCC=C(C)CCC=C(C)C    inactive
Nc1ccc(N)c([N+](=O)[O-])c1    inactive
CCCCCCCC1CCCC1=O (stereo not drawn)    inactive

----------
# experimental_target: Transcriptional activator Myb (Homo sapiens) (UniProt P10242)
# Sequence (P10242 whole entry, looked up): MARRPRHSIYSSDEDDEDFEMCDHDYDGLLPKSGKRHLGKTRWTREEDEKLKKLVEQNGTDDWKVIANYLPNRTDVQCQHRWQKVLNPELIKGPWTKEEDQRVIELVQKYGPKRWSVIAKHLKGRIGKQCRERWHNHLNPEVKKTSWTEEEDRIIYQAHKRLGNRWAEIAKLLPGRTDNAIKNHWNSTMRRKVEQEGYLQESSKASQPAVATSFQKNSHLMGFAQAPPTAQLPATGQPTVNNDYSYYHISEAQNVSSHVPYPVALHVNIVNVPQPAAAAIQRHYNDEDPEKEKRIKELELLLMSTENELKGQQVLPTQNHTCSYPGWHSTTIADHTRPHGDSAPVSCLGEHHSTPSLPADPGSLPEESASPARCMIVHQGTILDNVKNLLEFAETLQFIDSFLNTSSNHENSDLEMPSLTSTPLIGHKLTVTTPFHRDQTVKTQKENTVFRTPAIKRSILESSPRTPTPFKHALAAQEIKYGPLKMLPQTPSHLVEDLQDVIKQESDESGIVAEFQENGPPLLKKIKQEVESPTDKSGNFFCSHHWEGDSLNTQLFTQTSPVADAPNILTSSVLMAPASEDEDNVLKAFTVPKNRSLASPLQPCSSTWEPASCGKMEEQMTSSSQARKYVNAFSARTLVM
# assay_procedure: ATG_Myb_CIS: Attagene CIS-FACTORIAL HepG2 Assay for human Myeloblastosis (Myb) Proto-Oncogene Transcription Factor (AID 2282986)
# run_parameters: HepG2 Attagene CIS-FACTORIAL Myb reporter transcription; actives raise or lower the signal
The source made the active and inactive calls. How the source made its calls: active means hit-call score of the fitted dose curve at least 0.9, where 1 is the maximum; inactive means score below 0.9.
Classes used: 1.0 (active), 0.0 (inactive)

Nc1cc([N+](=O)[O-])ccc1C(=O)O    0.0
C[C@H](CCC(=O)O)[C@H]1CC[C@H]2[C@@H]3CC[C@@H]4C[C@H](O)CC[C@]4(C)[C@H]3CC[C@]12C    0.0
CC(CO)(CO)[N+](=O)[O-]    0.0
CCC(C)(C)c1cc(O)c(C(C)(C)CC)cc1O    1.0
CCOC(=O)C(=O)OCC    0.0
CC(C)(C)c1cccc(O)c1    0.0
CC(=O)C1=C(C)[C@@H]2C[C@@]3(C1)[C@H](C)CC[C@H]3C2(C)C    0.0
CC(=O)C1C(=O)C=C(C)OC1=O (stereo not drawn)    0.0
C=CC(C)(CCC=C(C)C)OC(=O)CC (stereo not drawn)    0.0
c1ccc2c(c1)-c1ccc3ccc4cccc5cc-2c1c3c45    0.0
CCCCCCCCCCO[C@@H]1O[C@H](CO)[C@@H](O)[C@H](O)[C@H]1O    0.0
CCCCCCC(O)CCOC(C)=O (stereo not drawn)    0.0
COC(=O)C(C)Oc1ccc(Oc2ncc(C(F)(F)F)cc2Cl)cc1 (stereo not drawn)    0.0
CN(C)CCC=C1c2ccccc2CCc2ccccc21    0.0
Cc1cccc(O)c1    0.0
CCCCCCCCCCCCCCCCCC(=O)OCCCCCCCCCCCCCC(C)C    0.0
CCCCCCCCCC(=O)OCC    0.0
CC1=CC(O)CC(C)(C)C1 (stereo not drawn)    0.0
CCCCOCC(C)OCC(C)O (stereo not drawn)    0.0
CC(=O)Nc1cc(S(=O)(=O)O)cc2cc(S(=O)(=O)O)c(N=Nc3ccccc3)c(O)c12    0.0
CC=CC(=O)C1=C(C)C=CCC1(C)C    0.0
CC1=CCC(C(C)(C)O)CC1 (stereo not drawn)    0.0
c1ccc(Sc2ccccc2)cc1    0.0
COC(=O)c1ccc(C(=O)OC)cc1    0.0
CN(C)C(=O)Nc1ccccc1    0.0
CCn1cc(C(=O)O)c(=O)c2ccc(C)nc21    0.0
CC/C(=C(\c1ccccc1)c1ccc(OCCN(C)C)cc1)c1ccccc1    0.0
C1COCO1    0.0

----------
# Read-out: Human Leukocyte Antigen - DR isotype (HLADR), HLA-DRA (gene 3122)
# assay_procedure: BSK_CASM3C_HLADR: BioMAP Diversity Plus: CASM3C Assay for Human Leukocyte Antigen - DR isotype (HLADR) Biomarker Activity (AID 2283043);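 further: cell-surface HLA-DR protein level quantified by ELISA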
# run_parameters: primary human coronary artery smooth muscle cells; actives raise or lower the signal
Calls of active or inactive are those of the source. The calls were made as follows: active = hit-call score of the fitted dose curve at least 0.9, where 1 is the maximum; inactive = score below 0.9.
Labels: 1.0 = active, 0.0 = inactive

CCn1cc(C(=O)O)c(=O)c2ccc(C)nc21    0.0
CCCCCCCC1CCCC1=O (stereo not given)    1.0
COc1ccccc1NC(=O)CC(C)=O    0.0
C[C@]12CC[C@@H]3c4ccc(O)cc4CC[C@H]3[C@@H]1CC[C@@H]2O    0.0
C#C[C@]1(O)CC[C@H]2[C@@H]3CCc4cc(O)ccc4[C@H]3CC[C@@]21C    0.0
CCCCN(CCO)CCO    0.0
C=C(C)C(=O)OCCC(F)(F)C(F)(F)C(F)(F)C(F)(F)C(F)(F)C(F)(F)C(F)(F)C(F)(F)F    0.0
CC(=O)OC(C)(C)C1CC=C(C)CC1 (stereo not given)    1.0
O=C(O)C(F)(F)C(F)(F)C(F)(F)C(F)(F)C(F)(F)C(F)(F)C(F)(F)C(F)F    0.0
C=CC(=O)OCC(CO)(COC(=O)C=C)COC(=O)C=C    1.0
CC=CC(=O)C1=C(C)C=CCC1(C)C    0.0
COC(=O)c1ccc(C(=O)OC)cc1    0.0
O=C(O)C(F)(F)OC(F)(F)C(F)(F)OC(F)(F)C(F)(F)C(F)(F)C(F)(F)F    0.0
OCCN1CCOCC1    0.0
c1ccc(Sc2ccccc2)cc1    1.0
CC1(C)[C@H](C=C(Cl)Cl)[C@H]1C(=O)OCc1cccc(Oc2ccccc2)c1    0.0
CC(C)CCCC(C)(C)O    0.0
OCC(F)(OC(F)(F)C(F)(OC(F)(F)C(F)(F)C(F)(F)F)C(F)(F)F)C(F)(F)F (stereo not given)    0.0
CCCCOCCOCCO    0.0
O=C1OC2(c3ccc(O)cc3Oc3cc(O)ccc32)c2ccccc21    0.0

----------
# assay_procedure: ATG_TGFb_CIS: Attagene CIS-FACTORIAL HepG2 Assay for human Transforming Growth Factor (TGF) (AID 2282967)
# run_parameters: HepG2 Attagene CIS TGFb reporter, mRNA transcription; actives raise or lower the signal
Calls of active or inactive are those of the source. How the source made its calls: active means hit-call score of the fitted dose curve at least 0.9, where 1 is the maximum; inactive means score below 0.9.
Labels: active, inactive

COc1ccc(OC)cc1    inactive
CCC=C(C)C=O    active
NS(=O)(=O)c1cc(C(=O)O)c(NCc2ccco2)cc1Cl    inactive
Cc1cccc(O)c1    inactive
CC(=O)CCC(=O)O    inactive
CC(CO)c1ccccc1 (centres undefined)    inactive
CCNC(=S)NCC    inactive
Cc1ccccc1S    inactive
C[C@H](CCC(=O)O)[C@H]1CC[C@H]2[C@@H]3CC[C@@H]4C[C@H](O)CC[C@]4(C)[C@H]3CC[C@]12C    active
CC(C)(O)C(=O)c1ccc(OCCO)cc1    inactive
CC(=O)CC(=O)N(C)C    inactive
CCCCCCCCSCc1cc(C)c(O)c(CSCCCCCCCC)c1    inactive
CCC(C)(C)C1CCC(=O)CC1    inactive
CC(C)=CC(=O)O    inactive
C=C(C)C(=O)OCCN(C)C    inactive
O=C1CCCCCCCCCCCC(=O)OCCO1    inactive
CCO[Si](CC)(OCC)OCC    active
CC/C=C\CCOC(=O)C(C)C    inactive
C=CCCCCCCCCC(=O)OCC    active
CCC(=O)OC/C=C(\C)CCC=C(C)C    inactive
CCOC(=O)CC(C)C    inactive
CCO[Si](CCC#N)(OCC)OCC    inactive
CCCCC(CC)COCCO (centres undefined)    inactive
CCCCCCCCCC(=O)OCC    inactive
CC(=O)OCC=C(C)CCC=C(C)CCC=C(C)C    inactive
CN1CCc2cccc3c2[C@H]1Cc1ccc(O)c(O)c1-3    inactive
O=C(O)c1ccccc1O    inactive
CCCCCCCCOC(=O)c1ccc(O)cc1    inactive
CCCCCCCOC(C)=O    inactive
CCCCCCC(O)CCOC(C)=O (centres undefined)    inactive
[Na+]    inactive
NC(=O)c1c(Cl)cccc1Cl    inactive
CC(=O)N(C)C    inactive
CCOCC(C)O (centres undefined)    inactive
